src = paper PMC6380468

Target: KDM7B(PHD) (Homo sapiens, UniProt Q9UPP1)
Construct: made in house
Sequence (Q9UPP1 41-92 limits assumed): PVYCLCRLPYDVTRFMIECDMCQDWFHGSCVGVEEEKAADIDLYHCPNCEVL
Assay: AlphaScreen displacement of H3K4me3-Bn from His-KDM7B(PHD)
Assay type: binding
MEASURED_QUANTITY: pIC50
Scale for pIC50: -log10 of concentration given in mol/L; no unit attached.

Prompt line: For the molecule "Cn1cc(C(=O)c2ccc(OCCC[N+](C)(C)C)cc2)c2ccccc21.[I-]" , give its measured pIC50 value.
Response line: 3.16

###

Test: AlphaScreen biotin-His6 counterscreen
Conditions: AlphaScreen interference counterscreen with biotin-His6; unit inferred; DNC = data did not converge to binding model; NM = not measurable within the solubility range
MEASURED_QUANTITY: IC50 (µM)
Field format: number, assumed µM, no unit text.

Prompt line: Input Cn1cc(C(=O)c2ccc(OCCC[N+](C)(C)C)cc2)c2ccccc21.[I-] [Compound 2d] , output reported IC50.
Response line: 970

Prompt line: Quote IC50 reported for CCCCc1oc2ccccc2c1C(=O)c1ccc(OCCCN)cc1 [Compound 10] please.
Response line: 376

Prompt line: Specify measured IC50 for CCCCc1oc2ccccc2c1C(=O)c1cc(OC)c(OCCC[N+](C)(C)C)c(OC)c1 [Compound 8a] .
Response line: 309

Prompt line: Specify measured IC50 for CCCCc1oc2ccccc2c1C(=O)c1cc(I)c(OCC[N+](C)(C)C)c(I)c1.[I-] [WAG-003, reference compound] .
Response line: 11300

###

Biological target: KDM7B(PHD) (Homo sapiens, UniProt Q9UPP1)
Construct: made in house
Assay: AlphaScreen displacement of H3K4me3-Bn from His-KDM7B(PHD)
Format: binding
Conditions: AlphaScreen; 12.5 nM protein and 12.5 nM peptide; n ≥ 3; read-out: IC50 for displacement of H3K4me3-Bn from His-KDM7B(PHD)
The label is met for IC50 below 400 µM and not met for IC50 equal to or exceeding 400 µM.

Prompt line: is_below(IC50, 400 µM) for "Cc1oc2ccccc2c1C(=O)c1ccc(OCCC[N+](C)(C)C)cc1.[I-]" ?
Response line: met

Prompt line: Problem: For the compound "CCCCc1oc2ccccc2c1C(=O)c1ccc(OCCC[N+](C)(C)C)cc1.[I-]" , is IC50 under 400 µM?
Response line: met

Prompt line: Does this compound meet the criterion IC50 < 400 µM? "Cc1sc2ccccc2c1C(=O)c1ccc(OCCC[N+](C)(C)C)cc1"
Response line: met

Prompt line: Determine if "CCCCc1oc2ccccc2c1C(=O)c1ccccc1OCCC[N+](C)(C)C.[I-]" shows IC50 strictly lower than 400 µM.
Response line: not met

Prompt line: Lab log: compare recorded IC50 with 400 µM; is it strictly lower for "CCCCc1oc2ccccc2c1C(=O)c1ccc(OCCC[N+](CC)(CC)CC)cc1" ?
Response line: met

Prompt line: Given CCCCc1oc2ccccc2c1C(=O)c1cc(I)c(OCC[N+](C)(C)C)c(I)c1.[I-] [WAG-003, reference compound] , is recorded IC50 strictly lower than 400 µM?
Response line: met

###

Target: KDM7C(PHD) (Homo sapiens, UniProt O75151)
Construct: made in house
Sequence (O75151 5-56 limits assumed): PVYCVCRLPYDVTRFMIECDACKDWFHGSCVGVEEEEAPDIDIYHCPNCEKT
Experiment: AlphaScreen displacement of H3K4me3-Bn from His-KDM7C(PHD)
Assay type: binding
Conditions: AlphaScreen; 25 nM KDM7C(PHD) and 6.25 nM peptide; n ≥ 3; read-out: IC50 for displacement of H3K4me3-Bn from His-KDM7C(PHD)
Consider the following compounds; for each one, report its pIC50.
Quick note: pIC50 values are minus log10 of concentrations in mol/L.

Prompt line: Recall the reported pIC50 of Cc1oc2ccccc2c1C(=O)c1ccc(OCCC[N+](C)(C)C)cc1.[I-] [Compound 2b] when tested on KDM7C(PHD) (Homo sapiens, UniProt O75151).
Response line: 3.22

Prompt line: Report pIC50 from KDM7C(PHD) (Homo sapiens, UniProt O75151) testing of CCCCc1oc2ccccc2c1C(=O)c1cc(OC)c(OCCC[N+](C)(C)C)c(OC)c1 [Compound 8a]
Response line: 3.64

Prompt line: Name the value of pIC50 reported for CCCCc1oc2ccccc2c1C(=O)c1ccc(OCCC[N+](CC)(CC)CC)cc1 [Compound 12] when tested on KDM7C(PHD) (Homo sapiens, UniProt O75151).
Response line: 3.48

Prompt line: Name the recorded pIC50 of CCCCc1oc2ccccc2c1C(=O)c1ccc(OCCCN(C)C)cc1 [Compound 1a] , assay system KDM7C(PHD) (Homo sapiens, UniProt O75151).
Response line: 3.80

Prompt line: Jot down pIC50 (KDM7C(PHD) (Homo sapiens, UniProt O75151)) of CCCCc1oc2ccccc2c1C(=O)c1ccc(OCCC[N+](C)(C)C)cc1.[I-] [Compound 2a] .
Response line: 3.24
